assay: AUC (0 to 24 hrs) in ICR mouse at 60 mg/kg, IG measured upto 24 hrs by LC-MS/MS analysis; type: ADME, organism-based; details: in vivo, po
This listing pairs compounds with measured AUC(0-t) at 24 h.
Give just the numeric value; µg·h/mL need not be written.

C=CCn1c(=O)c2cnc(Nc3ccc(N4CCN(C)CC4)cc3)nc2n1-c1cccc(-c2cnccn2)n1 :: 4.34
C=CCn1c(=O)c2cnc(Nc3ccc(N4CCN(C)CC4)cc3)nc2n1-c1cccc(-c2ncccn2)n1 :: 14.8
C=CCn1c(=O)c2cnc(Nc3ccc(N4CCNCC4)cc3)nc2n1-c1cccc(-c2ncccn2)n1 :: 0.235
C=CCn1c(=O)c2cnc(Nc3ccc(N4CCN(CCO)CC4)cc3)nc2n1-c1cccc(-c2cnccn2)n1 :: 2.44
C=CCn1c(=O)c2cnc(Nc3ccc(N4C[C@@H](C)N[C@@H](C)C4)cc3)nc2n1-c1cccc(-c2ncccn2)n1 :: 1.85

API: the following record is the query input.
Find the recorded AUC(0-t) at 24 h belonging to C=CCn1c(=O)c2cnc(Nc3ccc(N4CCN(C)CC4)cc3)nc2n1-c1cccc(C(C)(C)O)n1 and report it.
2.32
